measure_name: melting point

Req: Recorded melting point for `CCn1nc(C2CC2)c(C(=O)O)c1Cc1ccc(-c2ccccc2-c2nnn[nH]2)cc1` , please?
Resp: 227 to 229 °C

Req: Recorded melting point for `Clc1c(I)c(Cl)c(I)c(Cl)c1I` , please?
Resp: > 300 °C

Req: Recorded melting point for `CC(=O)Nc1ncc2cc(-c3c(Cl)cccc3Cl)c(=O)n(C)c2n1` , please?
Resp: 258 to 260 °C

Req: Recorded melting point for `O=C(Cc1cccc(OCCCN(Cc2cccc(C(F)(F)F)c2Cl)CC(c2ccccc2)c2ccccc2)c1)NS(=O)(=O)c1ccccc1` , please?
Resp: 110 °C

---
Req: Recorded melting point for `CCOC(=O)Nc1cc(OC2CCCC2)c(Cl)cc1F` , please?
Resp: 92.8 to 97.8 °C

====

measure_name: melting point

Req: Recorded melting point for `Cc1cncn1CC(=O)CCc1ccc(Cl)cc1` , please?
Resp: 227 to 228 °C

====

Each entry below carries its recorded melting point.

Req: Recorded melting point for `Oc1ncccc1C1(O)CCN(CC23CC(c4ccccc42)c2ccccc23)CC1` , please?
Resp: 195 to 199 °C

Req: Recorded melting point for `CC(=O)c1cnn(O)c1-c1ccc(C(=O)O)cc1C` , please?
Resp: > 250 °C

Req: Recorded melting point for `CCOc1ccc(C(=O)c2ccc(OC)c(Cl)c2Cl)c(F)c1` , please?
Resp: 94 to 96 °C

Req: Recorded melting point for `O=C(Nc1nc(C(Cl)(Cl)Cl)ns1)c1cccc([N+](=O)[O-])c1` , please?
Resp: 198 °C

Req: Recorded melting point for `CCOC(=O)NNc1ccc(-c2ccc(F)cc2)nn1` , please?
Resp: 173 to 174 °C

Req: Recorded melting point for `COC(=O)c1ccc(S(C)(=O)=O)c(-c2cc(C(C)C)no2)c1` , please?
Resp: 102 to 104 °C

Req: Recorded melting point for CS(=O)(=O)OCC(O)(CC(Cl)(Cl)Cl)c1ccccc1 (stereo not drawn) , please?
Resp: 128 to 130 °C

Req: Recorded melting point for CCC(=CC(CNC(=O)c1ccc(NS(C)(=O)=O)nc1)=NO)C(C)[N+](=O)[O-] (stereo not drawn) , please?
Resp: 131 to 136 °C

---
Req: Recorded melting point for `COc1cc2c(cc1Br)-c1cc3c(n1CC2)C(=O)N(C(C)(C)C)CCC3` , please?
Resp: 163 to 165 °C

Req: Recorded melting point for `CC(C)(O)c1cc2cc(OCC(=O)O)c(Cl)c(Cl)c2s1` , please?
Resp: 194 to 196 °C

Req: Recorded melting point for `O=C=Nc1ccc(OC(=O)CCC(=O)Oc2ccc(N=C=O)cc2)cc1` , please?
Resp: 193 to 195 °C

Req: Recorded melting point for CC(CF)(CF)C(O)C(Oc1cccc(C(F)(F)F)c1)n1ccnc1 (stereo not drawn) , please?
Resp: 107 to 120 °C

Req: Recorded melting point for O=C(c1ccc(OCC2CC2)c2oc3ccccc3c12)[NH+]([O-])c1c(Cl)cncc1Cl (stereo not drawn) , please?
Resp: 263 to 265 °C

====

Each entry below carries its recorded melting point.

Req: Recorded melting point for Cc1ccc(C(=O)N(CCCNC(=O)OC(C)(C)C)C(c2nc3snc(C)c3c(=O)n2Cc2ccccc2)C(C)C)cc1 (stereo not drawn) , please?
Resp: 70 to 71 °C

Req: Recorded melting point for `CCCCOc1ccc(S(C)(=O)=O)cc1-c1nc2c(CC)n(CCOC)nc2c(=O)[nH]1` , please?
Resp: 174 to 176 °C

---
Req: Recorded melting point for OCC1Cc2sccc2CN1C(=S)Nc1cccc2cnccc12 (racemic) , please?
Resp: 185 °C
